# testedTarget: Adenosine receptor A3 (Homo sapiens)
# Sequence (P0DMS8 whole entry): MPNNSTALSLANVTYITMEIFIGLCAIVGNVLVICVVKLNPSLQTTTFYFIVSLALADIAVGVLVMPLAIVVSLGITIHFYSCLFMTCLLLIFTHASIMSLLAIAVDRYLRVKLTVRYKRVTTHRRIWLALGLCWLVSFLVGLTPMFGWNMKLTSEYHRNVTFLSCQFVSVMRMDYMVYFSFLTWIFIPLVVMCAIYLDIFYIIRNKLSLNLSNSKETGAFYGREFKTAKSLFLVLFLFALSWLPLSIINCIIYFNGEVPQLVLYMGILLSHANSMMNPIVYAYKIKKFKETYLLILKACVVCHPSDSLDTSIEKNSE
# assayOverview: Inhibition of [125 I]-IABMECA binding to human adenosine A3 receptor
// reported pKi per item
To interpret pKi, take it as minus log10 of a concentration measured in moles per litre.

> print(dat)
                                   compound  attributemeasured  observedvalue
1  NC(=O)/N=N/Nc1nc(Nc2ccccc2)c2ncn([C@@H]3O[C@H](CO)[C@@H](O)[C@H]3O)c2n1                pKi           6.76

Now consider the entry below.
Item O=C(N/N=N/c1nc(NCC(c2ccccc2)c2ccccc2)c2ncn([C@@H]3O[C@H](CO)[C@@H](O)[C@H]3O)c2n1)Nc1ccccc1 has what recorded pKi?
6.85

---

# testedTarget: Adenosine receptor A2a (Homo sapiens, UniProt P29274)
# Sequence (P29274 whole entry): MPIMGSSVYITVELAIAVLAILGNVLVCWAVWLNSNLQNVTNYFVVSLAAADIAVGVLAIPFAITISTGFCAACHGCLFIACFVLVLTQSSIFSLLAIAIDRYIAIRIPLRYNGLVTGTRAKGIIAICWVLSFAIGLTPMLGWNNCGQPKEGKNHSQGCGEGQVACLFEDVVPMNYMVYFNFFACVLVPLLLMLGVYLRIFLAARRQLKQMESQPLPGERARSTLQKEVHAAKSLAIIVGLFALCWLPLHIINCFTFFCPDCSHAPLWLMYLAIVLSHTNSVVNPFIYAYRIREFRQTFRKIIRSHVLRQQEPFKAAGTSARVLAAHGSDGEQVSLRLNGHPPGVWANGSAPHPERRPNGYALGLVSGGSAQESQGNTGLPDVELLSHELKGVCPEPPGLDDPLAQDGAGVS
pKi: −log10 of the molar value.
Answer False if pKi is under 7, and True if it is 7 or more.

> print(dat)
                                 itemsmiles  answerlabel
1  O=C(N/N=N/c1nc(NC2CCCC2)c2ncn([C@@H]3O[C@H](CO)[C@@H](O)[C@H]3O)c2n1)Nc1ccccc1        False

Switching to the query record.
Please check the record O=C(N/N=N/c1nc(Nc2ccccc2)c2ncn([C@@H]3O[C@H](CO)[C@@H](O)[C@H]3O)c2n1)Nc1ccccc1 and state if its pKi is at or above 7.
True

---

// reported pKi per item
# testedTarget: UniProt:P0DMS8
# assayOverview: Binding affinity for human Adenosine A3 receptor using [125 I]-IABMECA
To interpret pKi, take it as minus log10 of a concentration measured in moles per litre.

Examples from the recorded data:
> print(dat)
                                   molecule  observedvalue
1  Nc1nc(/N=N/NC(=O)c2ccccc2)nc2c1ncn2[C@@H]1O[C@H](CO)[C@@H](O)[C@H]1O           6.72
2  Nc1nc(/N=N/c2ccccc2)nc2c1ncn2[C@@H]1O[C@H](CO)[C@@H](O)[C@H]1O           6.96
3  Nc1nc(/N=N/NC(=O)Nc2ccc(Cl)cc2)nc2c1ncn2[C@@H]1O[C@H](CO)[C@@H](O)[C@H]1O           7.41
4  Nc1nc(/N=N/NC(=O)NC2CCCCC2)nc2c1ncn2[C@@H]1O[C@H](CO)[C@@H](O)[C@H]1O           7.20
5  Nc1nc(N=NNC(=O)Nc2cccc(Cl)c2)nc2c1ncn2C1O[C@H](CO)[C@@H](O)[C@H]1O (some centres undefined)           7.23

Item Nc1nc(N=O)nc2c1ncn2[C@@H]1O[C@H](CO)[C@@H](O)[C@H]1O has what recorded pKi?
6.24

Item CCNC(=O)/N=N/Nc1nc(N)c2ncn([C@@H]3O[C@H](CO)[C@@H](O)[C@H]3O)c2n1 has what recorded pKi?
6.95

Item NC(=O)/N=N/Nc1nc(N)c2ncn([C@@H]3O[C@H](CO)[C@@H](O)[C@H]3O)c2n1 has what recorded pKi?
6.68

Item Nc1nc(/N=N/NC(=O)Nc2ccccc2)nc2c1ncn2[C@@H]1O[C@H](CO)[C@@H](O)[C@H]1O has what recorded pKi?
6.96
